Recorded z-score, one value per entry.
test: HepG2 cell viability effects, profiling panel, calcein-AM fluorescence, 48 h, basal (AID 1164); conditions: higher = more signal; further: test concentration not given here
Please give the numeric answer without any surrounding text.

CCOC(=O)[C@H](CC(C)C)NC(=O)CCC1CC(OC(=O)NCc2ccc3c(c2)OCO3)CC2(CCCC(COC(=O)NCCC(C)C)O2)O1 (some centres not stated)
-0.231
O=C1[C@H]2[C@H]3[C@H](O)[C@H](O)CC(=NOCc4ccccc4)[C@H]3CC[C@H]2C(=O)N1C1CCCCC1
0.734
CCN1C(=O)[C@H]2[C@H]3[C@H](O)[C@H](O)CC(=NNC(=O)OCc4ccccc4)[C@@H]3CC[C@H]2C1=O
-0.131
CCOC(=O)[C@H](Cc1ccccc1)NC(=O)CCC1CC(OC(=O)NCc2cccc3ccccc23)CC2(CCCC(COC(=O)NCC3CCCCC3)O2)O1 (some centres not stated)
-0.574
O=C1[C@H]2[C@H]3[C@H](O)[C@H](O)CC(=NOC[C@@H](O)COCc4ccco4)[C@@H]3CC[C@H]2C(=O)N1C1CCCCC1
0.444
CN1CCc2nc(-c3ccccc3)c(-c3ccccc3)cc2C1
0.135

Now consider a different compound.
Looking up CO[C@H]1C[C@@H]2C[C@H](O)CC(CC(=O)O[C@@H](C=CCC(C)C)C[C@@H]3CC[C@H](C)[C@@H](C1)O3)O2 , I see its z-score listed as 0.341
